- System tested: estrogen receptor
- Assay details: Scatchard analysis of ligand binding affinity on receptor-programmed reticulocyte lysate
- Particulars: Scatchard analysis at receptor dilutions giving signal:noise ~10
pKd: −log10 of the molar value.
Readout type: pKd

Entry CC12CCC3c4ccc(O)cc4CCC3C1CC([125I])C2O (stereo not drawn) [[^125I]-estradiol, [^125I]-16α-iodo-3,17β-estradiol] , estrogen receptor data, pKd value: 9.00 to 10.00
